biological target: Bromodomain-containing protein 9 (Homo sapiens); test: Binding affinity to human recombinant biotinylated BRD9 compound treated in ammonium acetate buffer by FAC-MS analysis
Sequence (Q9H8M2 whole entry): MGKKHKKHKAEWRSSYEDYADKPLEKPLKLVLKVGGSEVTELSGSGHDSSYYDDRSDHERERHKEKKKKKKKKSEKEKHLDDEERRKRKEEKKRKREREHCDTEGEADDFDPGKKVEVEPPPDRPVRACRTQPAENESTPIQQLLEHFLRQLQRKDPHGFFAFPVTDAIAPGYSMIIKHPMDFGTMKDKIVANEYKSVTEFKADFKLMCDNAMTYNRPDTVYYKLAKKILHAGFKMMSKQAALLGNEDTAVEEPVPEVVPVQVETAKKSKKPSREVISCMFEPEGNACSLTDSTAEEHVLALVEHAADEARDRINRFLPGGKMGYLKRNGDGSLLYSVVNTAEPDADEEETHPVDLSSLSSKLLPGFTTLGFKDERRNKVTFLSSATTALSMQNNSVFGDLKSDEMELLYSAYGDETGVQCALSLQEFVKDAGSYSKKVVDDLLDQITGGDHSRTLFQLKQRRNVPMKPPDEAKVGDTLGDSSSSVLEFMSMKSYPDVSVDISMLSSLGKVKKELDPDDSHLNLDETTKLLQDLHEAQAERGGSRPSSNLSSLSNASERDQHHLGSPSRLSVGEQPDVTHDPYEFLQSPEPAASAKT
Measured attribute: Kd (µM)
Give bare numbers, in µM.

## Task # input molecule: Cc1nnc2c(NC(=O)OC(C)(C)C)cc(-c3ccccc3)nn12 ; wanted: its Kd
## Result 8.35

* * *

biological target: Bromodomain-containing protein 4 (Homo sapiens) (UniProt O60885); test: Binding affinity to BRD4 (unknown origin) at 4 uM by thermal shift assay
Activity calls are given as the source filed them. The calls are words filed in the database; no cut-off is given here.
Thanks in advance; please answer with one of these: 1 = active, 0 = inactive

For orientation, consider the following solved cases.
Smiles input: CCOC(=O)N(c1cc(-c2cc(N)c3nnc(C)n3n2)ccc1C)S(=O)(=O)c1ccc(Cl)cc1
Category label: 0
//
Smiles input: Cc1ccc(-c2cc(N)c3nnc(C)n3n2)cc1NS(=O)(=O)c1ccccc1Cl
Category label: 1
//
Smiles input: FC(F)(F)c1nnc2ccc(-c3ccccc3)nn12
Category label: 0

## Task What outcome does the record of this test show for Cc1ccc(-c2cc(N)c3nnc(C)n3n2)cc1NS(=O)(=O)c1ccc(Cl)c(Cl)c1 ?
## Result 1

## Task Then COc1ccc(-c2ccc3nnc(C(F)(F)F)n3n2)cc1 ?
## Result 0
